system: HOP-62 NSCLC; test: NCI tumour cell line growth inhibition, 48 h
Where a SMILES comes first, the peptide text is derived from it. Bridges are numbered along the chain shown (N, C = ends). The star is where a group is joined. Cbz = O=C(OCc1ccccc1)*
This listing pairs compounds with measured TGI.

{"Compound": "CC(C)(CN1CCCCC1)C(=O)/C=C/c1ccccc1", "Tgt": "HOP-62 NSCLC", "TGI": "61.3 µM"}
{"Compound": "CN(C)CC1CC/C(=C\\c2ccc(Cl)c(Cl)c2)C1=O (centres undefined)", "Tgt": "HOP-62 NSCLC", "TGI": "> 95.1 µM"}
{"Compound": "CC(=O)OCC1OC(N2C(=O)[C@@H](Oc3ccccc3)[C@H]2/C=C/c2ccccc2)C(OC(C)=O)C(OC(C)=O)C1OC(C)=O (some centres undefined)", "Tgt": "HOP-62 NSCLC", "TGI": "> 100 µM"}
{"Compound": "CNC(=O)C1CCCCNC(=O)CCC(NC(=O)OCc2ccccc2)C(=O)N1 (stereo not drawn) (Cbz-Glu-Lys-NHMe; lactam 1-2; configuration not given here)", "Tgt": "HOP-62 NSCLC", "TGI": "> 100 µM"}
